Hey, just so you know, these numbers are from patent US20080312317A1.

Each item that follows carries a reported pIC50.
tested on: WiDr human colon cancer cell; test: Proliferation inhibitory effect, Cell Titer-Glo viability assay, WiDr; assay type: cell-based; conditions: 72 h, 3 days culture with compound, luciferase viability readout, read-out: IC50, concentration for 50% inhibition of cell growth
Keep it numeric: pIC50 is minus log10 of the concentration in mol/L.

compound="CC[C@H](O)[C@@H](C)[C@H]1O[C@@H]1C[C@H](C)/C=C/C=C(\\C)[C@H]1NC(=O)CCCCCC(OC(C)=O)/C=C/[C@@H]1C (some centres unmarked)" numeric_result=6.54

For the compound CC[C@H](O)[C@@H](C)[C@H]1O[C@@H]1C[C@@](C)(O)/C=C/C=C(\C)[C@H]1NC(=O)CCCCCC(OC(C)=O)/C=C/[C@@H]1C (some centres unmarked) , what pIC50 is on record?
6.24
